assay: AUClast in Beagle dog at 10 mg/kg, po after 0.25 to 144 hrs by LC-MS/MS analysis; assay type: ADME, organism-based, Canis lupus familiaris; set-up: time upper 144 hr, dose 10 mg/kg, time lower 0.25 hr, route oral; settings: in vivo
# reported AUC(0-t); entries follow
Dear colleague, please return just the value in µM·h, with no unit written.

- CCC(=O)c1sc(-c2ccc(OC)cc2)c(C)c1-c1ccc(S(N)(=O)=O)cc1: 1.3

From here, focus on the item given below.
Which AUC(0-t) is reported for this molecule? CCC(=O)c1sc(-c2ccc(Cl)cc2)c(C)c1-c1ccc(S(N)(=O)=O)cc1
282

---

test: Drug concentration in Swiss mouse brain at 40 mg/kg, sc after 30 mins by LC-MS analysis; type: ADME, organism-based; conditions: read-out: Drug uptake
measuredParameter: concentration at 0.5 h
Write down the value, and be sure its unit follows.

Which concentration at 0.5 h is reported for this compound? OCc1sc(Nc2ccc(F)c(C(F)(F)F)c2)nc1-c1ccncc1
1910 ng/g

---

# reported Tmax; entries follow
experiment: Tmax in Wistar rat at 10 mg/kg, po after 0.25 to 144 hrs by LC-MS/MS analysis; assay type: ADME, organism-based; conditions: in vivo
Dear colleague, please return just the value in h, with no unit written.

* CCC(=O)c1sc(-c2ccc(OC)cc2)c(C)c1-c1ccc(S(N)(=O)=O)cc1 | 2

From here, focus on the item given below.
Which Tmax is reported for this molecule? CCC(=O)c1sc(-c2ccc(Cl)cc2)c(C)c1-c1ccc(S(N)(=O)=O)cc1
5.2

---

test: Protein binding in dog plasma at 5 uM incubated for 16 hrs under shaking condition by LC/MS/MS based rapid equilibrium dialysis method; type: ADME, cell-free, Canis lupus familiaris; conditions: read-out: PPB (converted)
measuredParameter: fraction unbound at 16 h, 5 µM
Just the number.

Which fraction unbound at 16 h, 5 µM is reported for this compound? CCC(=O)c1sc(-c2ccc(Cl)cc2)c(C)c1-c1ccc(S(N)(=O)=O)cc1
0.0031

---

test: Brain to plasma permeability coefficient, Kp in Wistar rat at 10 mg/kg, po after 24 hrs by LC-MS/MS analysis; format: ADME, organism-based
measuredParameter: Kp at 24 h

Which Kp at 24 h is reported for this compound? CCC(=O)c1sc(-c2ccc(Cl)cc2)c(C)c1-c1ccc(S(N)(=O)=O)cc1
8.85

---

experiment: Drug level in Wistar rat plasma at 0.05 mg/kg, po; type: ADME, organism-based; details: in vivo
measuredParameter: concentration (nM)
Dear colleague, please return just the value in nM, with no unit written.

Which concentration is reported for this compound? CCC(=O)c1sc(-c2ccc(Cl)cc2)c(C)c1-c1ccc(S(N)(=O)=O)cc1
40

---

experiment: Drug level in Wistar rat plasma at 0.5 mg/kg, po; type: ADME, organism-based; conditions: in vivo
measuredParameter: concentration (nM)
Dear colleague, please return just the value in nM, with no unit written.

Which concentration is reported for this compound? CCC(=O)c1sc(-c2ccc(Cl)cc2)c(C)c1-c1ccc(S(N)(=O)=O)cc1
270

---

assay: Drug concentration in Wistar rat brain at 10 mg/kg, po after 24 hrs by LC-MS/MS analysis; format: ADME, organism-based; details: read-out: Drug uptake
measuredParameter: concentration at 24 h (µM)
Dear colleague, please return just the value in µM, with no unit written.

Which concentration at 24 h is reported for this molecule? CCC(=O)c1sc(-c2ccc(Cl)cc2)c(C)c1-c1ccc(S(N)(=O)=O)cc1
6.52

---

assay: Protein binding in rat plasma at 5 uM incubated for 16 hrs under shaking condition by LC/MS/MS based rapid equilibrium dialysis method; assay type: ADME, cell-free; settings: read-out: PPB (converted)
measuredParameter: fraction unbound at 16 h, 5 µM
Just the number.

• CCC(=O)c1sc(-c2ccc(Cl)cc2)c(C)c1-c1ccc(S(N)(=O)=O)cc1 = 0.0058

Which fraction unbound at 16 h, 5 µM is reported for this compound? CCC(=O)c1sc(-c2ccc(OC)cc2)c(C)c1-c1ccc(S(N)(=O)=O)cc1
0.003

---

assay: Protein binding in mouse plasma assessed as unbound fraction at 5 uM incubated for 16 hrs under shaking condition by LC/MS/MS based rapid equilibrium dialysis method; format: ADME, cell-free
measuredParameter: fraction unbound at 16 h, 5 µM

Which fraction unbound at 16 h, 5 µM is reported for this compound? CCC(=O)c1sc(-c2ccc(Cl)cc2)c(C)c1-c1ccc(S(N)(=O)=O)cc1
0.0116

---

test: Tmax in Wistar rat brain at 10 mg/kg, po after 1 to 144 hrs by LC-MS/MS analysis; type: ADME, organism-based
measuredParameter: Tmax
Write down the value, and be sure its unit follows.

Which Tmax is reported for this molecule? CCC(=O)c1sc(-c2ccc(Cl)cc2)c(C)c1-c1ccc(S(N)(=O)=O)cc1
4 h

---

experiment: Protein binding in rat plasma assessed as unbound fraction at 5 uM incubated for 16 hrs under shaking condition by LC/MS/MS based rapid equilibrium dialysis method; type: ADME, cell-free
measuredParameter: fraction unbound at 16 h, 5 µM

Which fraction unbound at 16 h, 5 µM is reported for this molecule? CCC(=O)c1sc(-c2ccc(Cl)cc2)c(C)c1-c1ccc(S(N)(=O)=O)cc1
0.0058

---

assay: Tmax in BALB/c mouse at 10 mg/kg, po after 0.25 to 144 hrs by LC-MS/MS analysis; assay type: ADME, organism-based; details: in vivo
measuredParameter: Tmax (h)
Dear colleague, please return just the value in h, with no unit written.

Which Tmax is reported for this compound? CCC(=O)c1sc(-c2ccc(Cl)cc2)c(C)c1-c1ccc(S(N)(=O)=O)cc1
4

---

assay: Drug level in Sprague-Dawley rat plasma at 0.05 mg/kg, po for 7 days; type: ADME, organism-based
measuredParameter: concentration at 168 h (nM)
Dear colleague, please return just the value in nM, with no unit written.

Which concentration at 168 h is reported for this molecule? CCC(=O)c1sc(-c2ccc(Cl)cc2)c(C)c1-c1ccc(S(N)(=O)=O)cc1
130

---

test: Volume of distribution at steady state in BALB/c mouse at 1 mg/kg, iv after 0.083 to 144 hrs by LC-MS/MS analysis; type: ADME, organism-based; conditions: in vivo, read-out: Vdss
measuredParameter: Vd (L/kg)
Dear colleague, please return just the value in L/kg, with no unit written.

Which Vd is reported for this compound? CCC(=O)c1sc(-c2ccc(Cl)cc2)c(C)c1-c1ccc(S(N)(=O)=O)cc1
4

---

experiment: Ratio of drug level in Swiss mouse brain to plasma at 40 mg/kg, sc after 30 mins by LC-MS analysis; format: ADME, organism-based; conditions: brain and plasma, read-out: BPR
measuredParameter: Kp at 0.5 h
Just the number.

Which Kp at 0.5 h is reported for this molecule? OCc1sc(Nc2ccc(F)c(C(F)(F)F)c2)nc1-c1ccncc1
0.3

---

experiment: Oral bioavailability in Wistar rat at 10 mg/kg after 0.25 to 144 hrs by LC-MS/MS analysis; assay type: ADME, organism-based; conditions: in vivo
# reported bioavailability; entries follow
Write down the value, and be sure its unit follows.

• CCC(=O)c1sc(-c2ccc(OC)cc2)c(C)c1-c1ccc(S(N)(=O)=O)cc1 = 63%

From here, focus on the item given below.
Which bioavailability is reported for this compound? CCC(=O)c1sc(-c2ccc(Cl)cc2)c(C)c1-c1ccc(S(N)(=O)=O)cc1
74%

---

# reported remaining at 0.5 h, 1 µM; entries follow
experiment: Metabolic stability in mouse liver microsomes assessed as compound remaining at 1 uM preincubated for 5 mins followed by NADPH addition and measured after 30 mins by LC-MS/MS analysis; assay type: ADME, Microsome; settings: read-out: Stability

- CCC(=O)c1sc(-c2ccc(OC)cc2)c(C)c1-c1ccc(S(N)(=O)=O)cc1: 78%

Which remaining at 0.5 h, 1 µM is reported for this compound? CCC(=O)c1sc(-c2ccc(Cl)cc2)c(C)c1-c1ccc(S(N)(=O)=O)cc1
96%

---

assay: Clearance in Wistar rat at 1 mg/kg, iv after 0.083 to 144 hrs by LC-MS/MS analysis; format: ADME, organism-based; settings: in vivo
measuredParameter: clearance (mL/min/kg)
Dear colleague, please return just the value in mL/min/kg, with no unit written.

Which clearance is reported for this compound? CCC(=O)c1sc(-c2ccc(Cl)cc2)c(C)c1-c1ccc(S(N)(=O)=O)cc1
1.3

---

assay: Volume of distribution at steady state in Wistar rat at 1 mg/kg, iv after 0.083 to 144 hrs by LC-MS/MS analysis; type: ADME, organism-based; details: in vivo, read-out: Vdss
measuredParameter: Vd (L/kg)
Dear colleague, please return just the value in L/kg, with no unit written.

* CCC(=O)c1sc(-c2ccc(OC)cc2)c(C)c1-c1ccc(S(N)(=O)=O)cc1 | 3

From here, focus on the item given below.
Which Vd is reported for this molecule? CCC(=O)c1sc(-c2ccc(Cl)cc2)c(C)c1-c1ccc(S(N)(=O)=O)cc1
4.3
